Data credit: ChEMBL document CHEMBL4390686

Assay: physchem
Conditions: HCl buffer, pH 1
Description: Aqueous solubility of the compound in pH 1 HCl buffer by RP-UPLC analysis
property: solubility

structure string	solubility
COC(=O)N[C@H](C(=O)N[C@@H](Cc1ccccc1)[C@H](CN(Cc1ccc(-c2ccccn2)cc1)NC(=O)[C@@H](NC(=O)OC)C(C)(C)C)OP(=O)(O)O)C(C)(C)C	> 2650 µg/mL
COC(=O)N[C@H](C(=O)N[C@@H](Cc1ccccc1)[C@H](CN(Cc1ccc(-c2ccccn2)cc1)NC(=O)[C@@H](NC(=O)OC)C(C)(C)C)OC(=O)[C@@H](NC(=O)[C@@H](N)C(C)C)C(C)C)C(C)(C)C	> 2150 µg/mL
COC(=O)N[C@H](C(=O)N[C@@H](Cc1ccccc1)[C@H](CN(Cc1ccc(-c2ccccn2)cc1)NC(=O)[C@@H](NC(=O)OC)C(C)(C)C)OC(=O)CN(C)C)C(C)(C)C	> 1400 µg/mL
COC(=O)N[C@H](C(=O)N[C@@H](Cc1ccccc1)[C@H](CN(Cc1ccc(-c2ccccn2)cc1)NC(=O)[C@@H](NC(=O)OC)C(C)(C)C)OC(=O)CN(C)C(=O)[C@H](Cc1ccccc1)N(C)C)C(C)(C)C	> 1200 µg/mL

Parameter requested: solubility. Apply to each item below.
1. COC(=O)N[C@H](C(=O)N[C@@H](Cc1ccccc1)[C@H](CN(Cc1ccc(-c2ccccn2)cc1)NC(=O)[C@@H](NC(=O)OC)C(C)(C)C)OC(=O)[C@@H](N)Cc1ccccc1)C(C)(C)C
2. COC(=O)N[C@H](C(=O)N[C@@H](Cc1ccccc1)[C@H](CN(Cc1ccc(-c2ccccn2)cc1)NC(=O)[C@@H](NC(=O)OC)C(C)(C)C)OC(=O)[C@H](N)Cc1ccccc1)C(C)(C)C
3. CNCC(=O)O[C@@H](CN(Cc1ccc(-c2ccccn2)cc1)NC(=O)[C@@H](NC(=O)OC)C(C)(C)C)[C@H](Cc1ccccc1)NC(=O)[C@@H](NC(=O)OC)C(C)(C)C
4. COC(=O)N[C@H](C(=O)N[C@@H](Cc1ccccc1)[C@H](CN(Cc1ccc(-c2ccccn2)cc1)NC(=O)[C@@H](NC(=O)OC)C(C)(C)C)OC(=O)CNCc1ccccc1)C(C)(C)C
5. COC(=O)N[C@H](C(=O)N[C@@H](Cc1ccccc1)[C@H](CN(Cc1ccc(-c2ccccn2)cc1)NC(=O)[C@@H](NC(=O)OC)C(C)(C)C)OC(=O)CN)C(C)(C)C

Response:
1. > 1500 µg/mL
2. > 1200 µg/mL
3. > 2200 µg/mL
4. > 990 µg/mL
5. > 1200 µg/mL

Request: Sample COC(=O)N[C@H](C(=O)N[C@@H](Cc1ccccc1)[C@H](CN(Cc1ccc(-c2ccccn2)cc1)NC(=O)[C@@H](NC(=O)OC)C(C)(C)C)OC(=O)[C@H](NC(=O)[C@H](N)C(C)C)C(C)C)C(C)(C)C — what was its solubility?
Response: > 2400 µg/mL

###

Would you kindly list half-life at 50000 µM for each of these compounds?
Assay: physchem
Conditions: 30% CH3CN/acetate buffer, pH 4
Description: Half life in pH 4 30%CH3CN/acetate buffer at 50 mM by RP-UPLC analysis

Take each entry in turn and give its half-life at 50000 µM.
1. COC(=O)N[C@H](C(=O)N[C@@H](Cc1ccccc1)[C@H](CN(Cc1ccc(-c2ccccn2)cc1)NC(=O)[C@@H](NC(=O)OC)C(C)(C)C)OC(=O)CN(C)C(=O)[C@@H](N)Cc1ccccc1)C(C)(C)C.Cl.Cl
2. COC(=O)N[C@H](C(=O)N[C@@H](Cc1ccccc1)[C@H](CN(Cc1ccc(-c2ccccn2)cc1)NC(=O)[C@@H](NC(=O)OC)C(C)(C)C)OC(=O)[C@H](N)CCSC)C(C)(C)C
3. COC(=O)N[C@H](C(=O)N[C@@H](Cc1ccccc1)[C@H](CN(Cc1ccc(-c2ccccn2)cc1)NC(=O)[C@@H](NC(=O)OC)C(C)(C)C)OCOP(=O)([O-])[O-])C(C)(C)C.[Na+].[Na+]

Response:
0.376 days
> 20.8 days
> 20.8 days

// each listed compound needs a value for half-life at 50000 µM
1. CNCC(=O)O[C@@H](CN(Cc1ccc(-c2ccccn2)cc1)NC(=O)[C@@H](NC(=O)OC)C(C)(C)C)[C@H](Cc1ccccc1)NC(=O)[C@@H](NC(=O)OC)C(C)(C)C
2. COC(=O)N[C@H](C(=O)N[C@@H](Cc1ccccc1)[C@H](CN(Cc1ccc(-c2ccccn2)cc1)NC(=O)[C@@H](NC(=O)OC)C(C)(C)C)OC(=O)CNCc1ccccc1)C(C)(C)C

Response:
> 13.9 days
> 20.8 days

###

Test: physchem
Conditions: 30% CH3CN/phosphate buffer, pH 6.5
Description: Half life in pH 6.5 30%CH3CN/phosphate buffer at 50 mM by RP-UPLC analysis
I'd appreciate it if you could supply half-life at 50000 µM values for the items below.
Answers are plain numbers, in days.

Completed entries (count: 3):
structure string	half-life at 50000 µM / days
COC(=O)N[C@H](C(=O)N[C@@H](Cc1ccccc1)[C@H](CN(Cc1ccc(-c2ccccn2)cc1)NC(=O)[C@@H](NC(=O)OC)C(C)(C)C)OC(=O)[C@H](C)N)C(C)(C)C	1.57
COC(=O)N[C@H](C(=O)N[C@@H](Cc1ccccc1)[C@H](CN(Cc1ccc(-c2ccccn2)cc1)NC(=O)[C@@H](NC(=O)OC)C(C)(C)C)OC(=O)CNC(=O)[C@@H](N)Cc1ccccc1)C(C)(C)C	3.06
COC(=O)N[C@H](C(=O)N[C@@H](Cc1ccccc1)[C@H](CN(Cc1ccc(-c2ccccn2)cc1)NC(=O)[C@@H](NC(=O)OC)C(C)(C)C)OC(=O)[C@@H](C)N)C(C)(C)C	1.57

Parameter requested: half-life at 50000 µM. Apply to each item below.
1. COC(=O)N[C@H](C(=O)N[C@@H](Cc1ccccc1)[C@H](CN(Cc1ccc(-c2ccccn2)cc1)NC(=O)[C@@H](NC(=O)OC)C(C)(C)C)OP(=O)(O)O)C(C)(C)C
2. COC(=O)N[C@H](C(=O)N[C@@H](Cc1ccccc1)[C@H](CN(Cc1ccc(-c2ccccn2)cc1)NC(=O)[C@@H](NC(=O)OC)C(C)(C)C)OC(=O)CNCc1ccccc1)C(C)(C)C
3. COC(=O)N[C@H](C(=O)N[C@@H](Cc1ccccc1)[C@H](CN(Cc1ccc(-c2ccccn2)cc1)NC(=O)[C@@H](NC(=O)OC)C(C)(C)C)OC(=O)CN(C)C(=O)[C@@H](N)Cc1ccccc1)C(C)(C)C.Cl.Cl
4. CNCC(=O)O[C@@H](CN(Cc1ccc(-c2ccccn2)cc1)NC(=O)[C@@H](NC(=O)OC)C(C)(C)C)[C@H](Cc1ccccc1)NC(=O)[C@@H](NC(=O)OC)C(C)(C)C
5. CN[C@@H](Cc1ccccc1)C(=O)N(C)CC(=O)O[C@@H](CN(Cc1ccc(-c2ccccn2)cc1)NC(=O)[C@@H](NC(=O)OC)C(C)(C)C)[C@H](Cc1ccccc1)NC(=O)[C@@H](NC(=O)OC)C(C)(C)C
6. COC(=O)N[C@H](C(=O)N[C@@H](Cc1ccccc1)[C@H](CN(Cc1ccc(-c2ccccn2)cc1)NC(=O)[C@@H](NC(=O)OC)C(C)(C)C)OC(=O)CNC(=O)[C@H](N)Cc1ccccc1)C(C)(C)C

Response:
1. 10.4
2. 13.9
3. 0.00333
4. 1.04
5. 0.00333
6. 3.69

###

Target: UDP-glucuronosyltransferase 1A1 (Rattus norvegicus, UniProt Q64550)
Sequence (Q64550 whole entry): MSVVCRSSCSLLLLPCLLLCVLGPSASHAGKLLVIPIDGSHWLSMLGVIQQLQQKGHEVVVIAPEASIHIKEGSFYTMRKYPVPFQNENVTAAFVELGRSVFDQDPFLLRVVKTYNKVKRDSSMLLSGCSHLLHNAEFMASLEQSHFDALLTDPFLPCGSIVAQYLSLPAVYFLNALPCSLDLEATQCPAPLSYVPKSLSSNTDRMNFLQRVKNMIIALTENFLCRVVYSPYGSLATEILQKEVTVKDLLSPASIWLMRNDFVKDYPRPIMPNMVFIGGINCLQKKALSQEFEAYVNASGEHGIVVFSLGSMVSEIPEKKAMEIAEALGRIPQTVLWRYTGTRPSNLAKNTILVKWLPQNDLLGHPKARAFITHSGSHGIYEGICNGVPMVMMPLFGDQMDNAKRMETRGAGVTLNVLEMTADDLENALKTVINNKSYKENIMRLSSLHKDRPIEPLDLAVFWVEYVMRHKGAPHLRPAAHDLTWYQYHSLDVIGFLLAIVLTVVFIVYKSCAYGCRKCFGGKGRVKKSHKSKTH
Test: Inhibition of recombinant rat UGT1A1 using beta-estradiol as substrate preincubated for 5 mins followed by substrate addition and measured after 40 mins by LC-MS/MS analysis
Type: ADME
property: IC50 (µM)
Answers are plain numbers, in µM.

structure string	system name	property	readout number
COC(=O)N[C@H](C(=O)N[C@@H](Cc1ccccc1)[C@@H](O)CN(Cc1ccc(-c2ccccn2)cc1)NC(=O)[C@@H](NC(=O)OC)C(C)(C)C)C(C)(C)C	UDP-glucuronosyltransferase 1A1 (Rattus norvegicus, UniProt Q64550)	IC50	4.2

Attention now shifts to the item below.
Request: If you can, please state the reported IC50 value of COC(=O)N[C@H](C(=O)N[C@@H](Cc1ccccc1)[C@H](CN(Cc1ccc(-c2ccccn2)cc1)NC(=O)[C@@H](NC(=O)OC)C(C)(C)C)OC(=O)[C@@H](N)Cc1ccccc1)C(C)(C)C .
Response: 12.6

###

Assay: in vitro
Conditions: human, Caco-2
Description: Apparent permeability across basolateral to apical side in human Caco2 cells at 2 uM
Labelling: Papp B→A at 2 µM reported below 10 ×10⁻⁶ cm/s becomes yes; at or above becomes no.

Please review the following examples before continuing.
structure string	class
COC(=O)N[C@H](C(=O)N[C@@H](Cc1ccccc1)[C@H](CN(Cc1ccc(-c2ccccn2)cc1)NC(=O)[C@@H](NC(=O)OC)C(C)(C)C)OC(=O)CN(C)C)C(C)(C)C	no
COC(=O)N[C@H](C(=O)N[C@@H](Cc1ccccc1)[C@H](CN(Cc1ccc(-c2ccccn2)cc1)NC(=O)[C@@H](NC(=O)OC)C(C)(C)C)OC(=O)[C@@H](N)Cc1ccc(F)cc1)C(C)(C)C	yes
COC(=O)N[C@H](C(=O)N[C@@H](Cc1ccccc1)[C@@H](O)CN(Cc1ccc(-c2ccccn2)cc1)NC(=O)[C@@H](NC(=O)OC)C(C)(C)C)C(C)(C)C	no
COC(=O)N[C@H](C(=O)N[C@@H](Cc1ccccc1)[C@H](CN(Cc1ccc(-c2ccccn2)cc1)NC(=O)[C@@H](NC(=O)OC)C(C)(C)C)OC(=O)CNCc1ccccc1)C(C)(C)C	yes
COC(=O)N[C@H](C(=O)N[C@@H](Cc1ccccc1)[C@H](CN(Cc1ccc(-c2ccccn2)cc1)NC(=O)[C@@H](NC(=O)OC)C(C)(C)C)OC(=O)[C@@H](N)Cc1ccccc1)C(C)(C)C	no

We next turn to a different compound, shown below.
Request: Report whether reported Papp B→A at 2 µM is lower than 10 ×10⁻⁶ cm/s (strictly) for COC(=O)N[C@H](C(=O)N[C@@H](Cc1ccccc1)[C@H](CN(Cc1ccc(-c2ccccn2)cc1)NC(=O)[C@@H](NC(=O)OC)C(C)(C)C)OC(=O)[C@@H](N)Cc1ccc(O)cc1)C(C)(C)C
Response: yes
